- TGT: delta opioid receptor (CHO-hδ cell membranes) (Homo sapiens)
- Sequence (P41143 whole entry): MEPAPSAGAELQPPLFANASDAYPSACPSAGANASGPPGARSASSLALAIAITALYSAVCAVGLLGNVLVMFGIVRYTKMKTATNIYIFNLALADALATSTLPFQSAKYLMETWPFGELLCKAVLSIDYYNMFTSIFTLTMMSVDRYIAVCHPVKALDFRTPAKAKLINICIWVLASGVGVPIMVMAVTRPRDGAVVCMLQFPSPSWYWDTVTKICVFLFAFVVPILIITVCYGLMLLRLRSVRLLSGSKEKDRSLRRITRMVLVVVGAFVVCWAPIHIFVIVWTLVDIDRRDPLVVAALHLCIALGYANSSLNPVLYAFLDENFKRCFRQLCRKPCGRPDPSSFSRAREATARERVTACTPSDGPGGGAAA
- PROCEDURE DETAILS: Delta Opioid Receptor Functional Assay: [35S]GTPγS Binding in CHO-hδ Cell Membranes, Version 1
- RUN PARAMETERS: read-out: DOR GTP-binding Assay_v1 EC50
- Experimental: CHO-hδ cell membranes were purchased from Receptor Biology, Inc. (Baltimore, Md.). 10 mg/ml of membrane protein suspended in 10 mM TRIS-HC pH 7.2, 2 mM EDTA, 10% sucrose. Membranes were maintained at 4-8° C. […] The pellet membranes (20 μg/ml) were preincubated with SPA (10 mg/ml) at 25° C. for 45 min in the assay buffer. […] The data were analyzed on a Top counter. Data The % of Basal=(stimulate−non specific)*100/(basal−non specific). EC50 values were calculated using a Prism program.
Listed here are molecules together with their documented pEC50.
Remember the convention: pEC50 equals -log10 of concentration in molar.

Answered examples (4):
molecule="CCN(C(=O)[C@@H](N)Cc1c(C)cc(C(N)=O)cc1C)[C@@H](C)c1nc(-c2ccccc2)c[nH]1 [Cpd 197]" quantity_name=pEC50 number=6.85
molecule="Cc1cc(O)cc(C)c1C[C@H](N)C(=O)N(Cc1nc(-c2cncnc2)c(C)[nH]1)C(C)C [Cpd 131]" quantity_name=pEC50 number=7.00
molecule="Cc1cc(O)cc(C)c1C[C@H](N)C(=O)N(Cc1nc(-c2ccccc2Cl)c(C)[nH]1)C(C)C [Cpd 155]" quantity_name=pEC50 number=6.82
molecule="CCN(C(=O)[C@@H](N)Cc1ccc(O)cc1)[C@@H](C)c1nc(-c2ccccc2)c[nH]1 [Cpd 215]" quantity_name=pEC50 number=5.97

# input For the molecule shown here, C[C@H](c1nc(-c2ccccc2)c[nH]1)N(Cc1ccccc1)C(=O)[C@@H](N)Cc1ccc(O)cc1 [Cpd 221] , give the reported pEC50.
# output 6.51

# input For the molecule shown here, CCN(C(=O)[C@@H](N)Cc1ccc(O)cc1)[C@H](C)c1nc(-c2ccccc2)c[nH]1 [Cpd 214] , give the reported pEC50.
# output 4.59

# input For the molecule shown here, Cc1cc(O)cc(C)c1C[C@H](N)C(=O)N(Cc1nc(-c2ccc3ccccc3c2)c(C)[nH]1)C(C)C [Cpd 150] , give the reported pEC50.
# output 7.31

# input For the molecule shown here, CCN(C(=O)[C@@H](N)Cc1c(C)cc(O)cc1C)[C@H](C)c1nc(-c2ccccc2)c[nH]1 [Cpd 217] , give the reported pEC50.
# output 7.09

The measured values listed here are drawn from patent US10213415B2.
